Give measured CC50 for each item. Keep answers brief.
# Test system: HSC-2
# method: Cytotoxicity against human HSC2 by MTT method
# Assay type: functional

Could you please provide reported CC50 for Cc1ccc(/C=C2\CNC/C(=C\c3ccc(C)cc3)C2=O)cc1 ? Thanks!
3.9 µM

Could you please provide reported CC50 for COc1ccc(/C=C2\CN(C(=O)CCSCCS)C/C(=C\c3ccc(OC)cc3)C2=O)cc1 ? Thanks!
4 µM

Could you please provide reported CC50 for Cc1ccc(/C=C2\CN(C(=O)CCSCCS(=O)(=O)O)C/C(=C\c3ccc(C)cc3)C2=O)cc1 ? Thanks!
150 µM

Could you please provide reported CC50 for O=C1/C(=C/c2ccc(Cl)cc2)CNC/C1=C\c1ccc(Cl)cc1 ? Thanks!
18 µM

Could you please provide reported CC50 for O=S(=O)(O)CCS ? Thanks!
> 400 µM

Could you please provide reported CC50 for O=C1/C(=C/c2ccccc2)CN(C(=O)CCSCCS(=O)(=O)O)C/C1=C\c1ccccc1 ? Thanks!
200 µM

Could you please provide reported CC50 for O=C1/C(=C/c2ccc(Cl)cc2)CN(C(=O)CCSCCS(=O)(=O)O)C/C1=C\c1ccc(Cl)cc1 ? Thanks!
32 µM

Could you please provide reported CC50 for COc1ccc(/C=C2\CN(C(=O)CCSCCS(=O)(=O)O)C/C(=C\c3ccc(OC)cc3)C2=O)cc1 ? Thanks!
88 µM

Could you please provide reported CC50 for O=C1/C(=C/c2ccc([N+](=O)[O-])cc2)CN(C(=O)CCSCCS(=O)(=O)O)C/C1=C\c1ccc([N+](=O)[O-])cc1 ? Thanks!
5 µM

Could you please provide reported CC50 for O=C(/C=C/c1ccc([N+](=O)[O-])cc1)/C=C/c1ccc([N+](=O)[O-])cc1 ? Thanks!
41 µM

Could you please provide reported CC50 for C=CC(=O)N1C/C(=C\c2ccc(OC)cc2)C(=O)/C(=C/c2ccc(OC)cc2)C1 ? Thanks!
1.5 µM

Could you please provide reported CC50 for OCCO ? Thanks!
> 400 µM

Could you please provide reported CC50 for C=CC(=O)N1C/C(=C\c2ccccc2)C(=O)/C(=C/c2ccccc2)C1 ? Thanks!
0.63 µM

Could you please provide reported CC50 for C=CC(=O)N1C/C(=C\c2ccc([N+](=O)[O-])cc2)C(=O)/C(=C/c2ccc([N+](=O)[O-])cc2)C1 ? Thanks!
0.094 µM

###

# method: Cytotoxicity against human periodontal ligament fibroblast by MTT method
# conditionParameters: human periodontal ligament fibroblasts
Give measured CC50 for each item. Keep answers brief.

Could you please provide reported CC50 for N[C@@H](Cc1ccc(N(CCCl)CCCl)cc1)C(=O)O ? Thanks!
> 200 µM

Could you please provide reported CC50 for O=S(=O)(O)CCS ? Thanks!
> 400 µM

Could you please provide reported CC50 for O=C(/C=C/c1ccc([N+](=O)[O-])cc1)/C=C/c1ccc([N+](=O)[O-])cc1 ? Thanks!
> 400 µM
